Just for reference, patent US20090022663A1 is where these values come from.

# Target system: T1, 161P2F10B variant 1 (human 161P2F10B), on the cell surface (human, UniProt O14638 1-875)
# T1 construct: Cell surface pyrophosphatase/phosphodiesterase; also called 161P2F10B v.1; CD203c
# Measurement description: FACS titration on KU-812 cells, one site binding fit
Metric name: pKd
Reminder that pKd is minus the log10 of a molar concentration.

Consider the following illustrative entries.
Can you look up the measured pKd of Ha16-1(3,5)27.1 (antibody, V domains shown, VH entry holds part of the leader; both hold a portion of the constant region) VH: LVESGAEVKKPGESLKISCKGSGYRFTSYWIGWVRQMPGKGLEWMGIIYPGDSDTRYSPSFQGQVTISADKSISTAYLQWSSLKASDTAMYYCARKDYYYYSMDVWGQGTTVTVSS VL: GQSALTQPASVSGSPGQSITISCTGTSSDVGGYNYVSWYQQHPGQAPKLLIYGVNIRPSGVSTRFSGSKSGNTASLTISGLQAEDEADYYCSSYTRSSILVVFAGGTKLTVLG for me?
10.85

# get_value(readout='pKd', item= H16-1.93 (antibody, V domains shown, Entries hold the leader (or part of it) and a portion of the constant region; also called ATCC PTA-7449) VH: QVQLVQSGAEVKKPGASVKVSCKASGYTFTSYGISWVRQAPGQGLEWMGWISAYNGNTYYAQKLQARVTMTTDTSTSTAYMELRSLRSDDTAVYYCARDGYSSSWSLLHYYGMDVWGQGTTVTVSS VL: DIQMTQSPSSLSASVGDRITITWRSSQGIYNSLAWYQQKPGKVPKLLIYAASTLHSGVPSRFSGSGSGTDFTLTISSLQPEDVATYYCQKYNSAPFTFGPGTKVDIKR )
10.05

Others:
Given Ha16-1(3,5)56 (antibody, V domains shown) VH: RCRLVESGAEVKKPGESLKISCKGSGYRFTSYWIGWVRQMPGKGLEWMGIIYPGDSDTRYSPSFQGQVTISADKSISTAYLQWRSLKASDTAMYYCARKDYYYYVMDVWGQGTTVTVSS VL: DTISCTGTSSDVGNYNYVSWYQQHPGKAPKLMIYAVNNRPSGVSNRFSGSKSGNTASLTISGLQAEDEADYYCSSYTSSRNLVVFGGGTKLTVLG , state its recorded pKd.
10.72
